# method description: in vivo
# condition label: mouse, brain, iv, 2 mg/kg
# Description: Drug level in mouse brain at 2 mg/kg, iv after 8 hrs
Listed here are molecules together with their documented concentration at 8 h.

{"smiles structure": "CCc1cc2c(cc1-c1cnn(CC(=O)N(C)C)c1)C(C)(C)c1[nH]c3cc(C#N)ccc3c1C2=O", "readout value": "4 nM"}

Lookup: Could you tell me which concentration at 8 h is on file for "CCc1cc2c(cc1-c1cnn(CCCN(C)C)c1)C(C)(C)c1[nH]c3cc(C#N)ccc3c1C2=O" ?
Found: 80 nM

###

# method description: Plasma concentration in mouse at 10 mg/kg, po after 2 hrs
# Type: ADME, organism-based
readout label: concentration at 2 h (nM)
Give just the numeric value; nM need not be written.

Lookup: Could you tell me which concentration at 2 h is on file for "CCc1cc2c(cc1-c1cnn(CCCN(C)C)c1)C(C)(C)c1[nH]c3cc(C#N)ccc3c1C2=O" ?
Found: 210
